Each recorded value in this set is attributed to paper PMC6662551.

# details: human, plasma, oral, CL/F, pravastatin + cyclosporine; all genotype
metric.name: CL/F (mL/min/kg)
Use mL/min/kg as the unit, but write only the number.

Which value of CL/F has been reported for CC[C@H](C)C(=O)O[C@H]1C[C@H](O)C=C2C=C[C@H](C)[C@H](CC[C@@H](O)C[C@@H](O)CC(=O)O)[C@H]21 in the records?
22.3

* * *

# Assay type: in vivo, human
# details: plasma, 12 hours after first CsA dose; pravastatin + cyclosporine; all genotype
metric.name: C0 (nM)
# output: bare number, implied unit nM

O=C(O)CCCCCCCCCCCCCCC(=O)O; 84

Field request: C0 | item: O=C(O)CCCCCCCCCCCCC(=O)O
68

* * *

# details: human, plasma, oral, 40 mg, AUC0→12, text; pravastatin + placebo; TC; pravastatin peak only
metric.name: AUC(0-t) (ng·h/mL)
Give the value, in units of ng·h/mL, as a plain number.

# input compound: CC[C@H](C)C(=O)O[C@H]1C[C@H](O)C=C2C=C[C@H](C)[C@H](CC[C@@H](O)C[C@@H](O)CC(=O)O)[C@H]21 ; wanted: its AUC(0-t)
48

* * *

# Tested on: OATP1B1
# Assay type: in vivo, human
# details: human, plasma, oral, C0, plasma, baseline; pravastatin + placebo; TT
metric.name: C0 (nM)
Could you give me the number in nM? Just the number is fine.

O=C(O)CCCCCCCCCCCCCCC(=O)O; 52

Switching to the query record.
Which value of C0 has been reported for O=C(O)CCCCCCCCCCCCC(=O)O in the records?
44

* * *

# Type: in vivo, human
# details: pravastatin + cyclosporine (N = 16)
Quick reference: Cmax of the listed items.
The reply should contain only the number, in µM.

O=C(O)CCCCCCCCCCCCC(=O)O; 0.149

Consider now this further compound.
Recorded Cmax of O=C(O)CCCCCCCCCCCCCCC(=O)O , please.
0.155

* * *

# Test system: OATP1B1
# Format: in vivo, human
# details: human, plasma, oral, AUClast, 0.25-12 hour; pravastatin + placebo; CC (N = 2)
metric.name: AUC(0-t) (µM·h)
Give your result in µM·h as a bare value.

O=C(O)CCCCCCCCCCCCC(=O)O; 1.8

As a next step, examine the molecule that follows.
State the recorded AUC(0-t) for this entry: O=C(O)CCCCCCCCCCCCCCC(=O)O
1.45
